Sourced from ChEMBL document CHEMBL4385662

system: Mycobacterium tuberculosis; assay: Anti-tubercular activity against Mycobacterium tuberculosis H37Rv expressing LuxABCDE assessed as relative luminescence by measuring ratio of RLU (test compound)/RLU(no compound) at 10 uM by luminescence based assay; assay type: functional
Each item that follows carries a reported Ratio.

# example entries with known answers
COc1cc2nccc(Nc3ccc(NC(=O)c4ccc(C)cc4)c(O)c3)c2cc1OC | 1.05
C#Cc1cccc(Nc2ccnc3cc(OC)c(OC)cc23)c1 | 0.89
COc1cc(Nc2ccnc3ccc(C(F)(F)F)cc23)cc(OC)c1OC | 1.14
Oc1cc2ncnc(Nc3ccc(OCc4ccc(F)cc4)cc3)c2cc1O | 0.89
COc1cc2ncnc(Nc3cccc(Br)c3)c2cc1OC | 0.71

Q) Give the reported Ratio for Oc1ccc2c(Nc3ccc(OCc4ccc(F)cc4)cc3)ncnc2c1 (system: Mycobacterium tuberculosis).
A) 0.89

Q) Another compound to look at: COc1cc2nccc(Nc3ccc(NC(C)=O)cc3)c2cc1OC
A) 1.07

Q) Input COc1cc2ncnc(Nc3ccc(OCc4cccc(F)c4)c(Cl)c3)c2cc1OC
A) 0.74
